Each recorded value in this set is attributed to patent US20180228158A1.

System: soybean sudden death syndrome (fungi of the genus Fusarium)
protocol summary: Field trial against soybean sudden death syndrome (seed treatment)
Format: in vivo, Fusarium virguliforme
Design: key: % of affected plants
condition notes: soybean seed treatment 1 mg/seed; percentage of affected plants at harvest time in the fall
Description: A field trial was conducted to determine the efficacy of compounds as described herein against soybean sudden death syndrome. Soybean seeds were planted at the start of the spring growing season in a location where fungi of the genus Fusarium were endemic. Nothing special was done to encourage growth of the fungus or development of the SDS disease. Compounds listed in Table 1 below were used to treat soybean seeds prior to planting. […]
# reported SDS incidence; entries follow
Form: value (number only, do not type unit).

Consider the worked cases shown below.
Clc1ccc(-c2noc(-c3ccco3)n2)cc1 = 26.25
c1ccc(-c2noc(-c3cccs3)n2)cc1 = 28.75
CNC(=O)O/N=C(\SC)C(=O)N(C)C [Oxamyl, oxamyl, reference compound] = 32.5

// moving on: another record for SDS incidence
Query: Hello, please tell me recorded SDS incidence for this one: Cc1cc(Cl)ccc1-c1noc(-c2ccco2)n1
Reply: 46.25
